B1: LINE1-mini (parent)
chain: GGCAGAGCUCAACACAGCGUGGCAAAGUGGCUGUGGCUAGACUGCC

variants of: B1; assay: self-cleavage, relative activity (ratio to wild type); higher = more cleavage; in vitro, sequencing; the parent is a self-cleaving ribozyme
measurement_kind: self-cleavage
Number only, no unit.

{"variant_descriptor": "A12U A26G", "self-cleavage": 0.22}
{"variant_descriptor": "A4C G27C", "self-cleavage": 0.07}
{"variant_descriptor": "C3U C15A", "self-cleavage": 0.08}
{"variant_descriptor": "U34C A41C", "self-cleavage": 0.05}
{"variant_descriptor": "A25G A41U", "self-cleavage": 0.19}
{"variant_descriptor": "C10U A25G", "self-cleavage": 0.39}
{"variant_descriptor": "G7U G19C", "self-cleavage": 0.05}
{"variant_descriptor": "C15A G33A", "self-cleavage": 0.11}

Just so you know, measured self-cleavage for G27U U32C came out at 0.19

Just so you know, measured self-cleavage for G5U C37A came out at 0.06

Just so you know, measured self-cleavage for U9G A25C came out at 0.13
